test: Growth inhibition of human HCT116 cells at 10^-5 M after 48 hrs by SRB assay; assay type: functional; details: HCT-116, 48 h, read-out: GI
For each of the compounds below, state its inhibition of growth at 10 µM.
One number for each entry, in %.

COc1cc(C(=O)c2cc(C#N)c3cc(C#N)ccn23)cc(OC)c1OC
2
CCOC(=O)c1cc(C(=O)c2cc(OC)c(OC)c(OC)c2)n2ccc(C)cc12
100
CCOC(=O)c1cc(C(=O)c2cc(OC)c(OC)c(OC)c2)n2ccc(N(C)C)cc12
0

// each listed compound needs a value for inhibition of growth at 10 µM
1. COC(=O)c1c(C(=O)OC)c2cc(N(C)C)ccn2c1C(=O)c1ccc(OC)c(OC)c1
2. COC(=O)c1c(C(=O)OC)c2cc(OC)ccn2c1C(=O)c1ccc(OC)cc1
3. CCOC(=O)c1cc(C(=O)c2cc(OC)c(OC)c(OC)c2)n2cccc(C#N)c12
4. CCOC(=O)c1cc(C(=O)c2ccc(OC)c(OC)c2)n2ccc(OC)cc12
5. COc1cc(C(=O)c2cc(C(=O)O)c3cccc(C)n23)cc(OC)c1OC
6. COC(=O)c1c2c(O)nnc(-c3ccc(OC)cc3)c2n2cc(C)cc(C)c12
7. COC(=O)c1c(C(=O)OC)c2cc(C)ccn2c1C(=O)c1cc(OC)c(OC)c(OC)c1

stdout:
0
0
79
2
0
2
0

---

species: Ovis aries; experiment: Inhibition of sheep brain tubulin polymerization at 100 uM by fluorescence assay
Exercise: state measured inhibition for each of the compounds provided.
Answers are plain numbers, in %.

CCOC(=O)c1c(C(=O)OCC)c2cc(OC)ccn2c1C(=O)c1cc(OC)c(OC)c(OC)c1
57

Please go through the list and note inhibition for each compound.
1. CCOC(=O)c1cc(C(=O)c2cc(OC)c(OC)c(OC)c2)n2cccc(C)c12
2. COc1cc(C(=O)c2cc(C#N)c3cc(C#N)ccn23)cc(OC)c1OC
3. CCOC(=O)c1cc(C(=O)c2cc(OC)c(OC)c(OC)c2)n2ccc(OC)cc12
4. COC(=O)c1c2c(O)nnc(-c3ccc(OC)cc3)c2n2cc(C)cc(C)c12
5. COc1cc([C@@H]2c3cc4c(cc3C[C@H]3COC(=O)[C@@H]32)OCO4)cc(OC)c1OC
6. COC(=O)c1c(C(=O)OC)c2c(C)cc(C)cn2c1C(=O)c1cc(OC)c(OC)c(OC)c1
7. CCOC(=O)c1c(C(=O)OCC)c2cccc(C)n2c1C(=O)c1cc(OC)c(OC)c(OC)c1
8. COc1cc(C(=O)c2cc(C#N)c3c(C#N)cccn23)cc(OC)c1OC

stdout:
1. 55
2. 46
3. 9
4. 58
5. 100
6. 36
7. 58
8. 39

---

test: Growth inhibition of human HOP92 cells at 10^-5 M after 48 hrs by SRB assay; format: functional; details: HOP-92, 48 h, read-out: GI
For each record, write down the corresponding inhibition of growth at 10 µM.
Numbers only, in %.

CCOC(=O)c1cc(C(=O)c2cc(OC)c(OC)c(OC)c2)n2ccc(C)cc12
88

Field: inhibition of growth at 10 µM. Fill in for each record below.
1. CCOC(=O)c1cc(C(=O)c2ccc(OC)cc2)n2cc(C)cc(C)c12
2. CCOC(=O)c1cc(C(=O)c2cc(OC)c(OC)c(OC)c2)n2cc(C)cc(C)c12

stdout:
1. 11
2. 29

Parameter requested: inhibition of growth at 10 µM. Apply to each item below.
1. COc1ccc(C(=O)c2cc(C#N)c3c(C)cc(C)cn23)cc1
2. COC(=O)c1c(C(=O)OC)c2cc(N(C)C)ccn2c1C(=O)c1ccc(OC)c(OC)c1

stdout:
43
18
